Recorded measurements of TGI, one per entry
- System: UACC-62 melanoma
- experimentNotes: NCI tumour cell line growth inhibition, 48 h

compound | TGI
COc1ccc(C2OC(=O)c3ccc4ccccc4c32)c(C)c1 (stereo not given) | > 100 µM
CC1=C(C(=O)CC(=O)C(=O)Nc2cc(C)ccc2C)Sc2ccccc2N1 | > 100 µM
CC[n+]1oc(C(=O)c2ccc(Cl)cc2)c(-c2ccccc2)c1-c1ccccc1.[Cl][Fe]([Cl])([Cl])[Cl] | > 100 µM
CC1/C=C/[C@@]2(C)CCC(C(C)(C)O)C2C(O)C[C@](C)(O)/C=C/C1 (stereo not given in full) | > 100 µM
[N-]=[N+]=NC1OC(=O)C(Cl)=C1N=P(c1ccccc1)(c1ccccc1)c1ccccc1 (stereo not given) | > 10 µM

Which TGI reading was recorded for the compound NS(=O)(=O)c1ccc(-n2nc3c(c2-c2ccc(Cl)cc2)Cc2ccccc2-3)cc1 ?
26.9 µM

Continue with CC(Oc1ccc2c(-c3ccccc3)cc(=O)oc2c1)C(=O)O (stereo not given)
> 100 µM

Continue with CCC1(N=[N+]=[N-])C(=O)c2ccccc2N(C)C1=O (stereo not given)
> 100 µM

Continue with COc1c(/C=C/C(C)(C)O)cc(C2CC(=O)c3c(O)cc(O)cc3O2)cc1CC=C(C)C (stereo not given)
13.3 µM

Continue with CC(=O)OC12C3C4C1C1C2C3C41OC(C)=O (stereo not given)
> 100 µM

====

- Tested on: SK-MEL-5 melanoma
- experimentNotes: NCI tumour cell line growth inhibition, 48 h
Values of TGI greater than or equal to 20 µM map to class 1; values below map to class 0.

compound | group
O=C(NCCN1CCOCC1)c1cn2c(ccc3sc4ccccc4c(=O)c32)n1 | class 1

Could you verify whether the entry CC1=NC2=Nc3nc(C)cc[n+]3CN2C=C1 shows TGI of no less than 20 µM?
class 1

Continue with O=C(O)C(O)C(O)C(=O)O (stereo unspecified)
class 1

Continue with C[C@@H]1C[C@H](C)CN(S(=O)(=O)c2ccc3c(NO)c4ccc(S(=O)(=O)N5C[C@H](C)C[C@H](C)C5)cc4c(N=O)c3c2)C1
class 0

Continue with [C](#Cc1ccccc1)[Hg][C]#Cc1ccccc1
class 1

Continue with O=C(c1nc2ccc([N+](=O)[O-])cc2[nH]c1=O)C(O)c1ccc2c(c1)OCO2 (stereo unspecified)
class 1

====

- Test system: COLO 205 colon
- experimentNotes: NCI tumour cell line growth inhibition, 48 h
assayReadout: TGI (µM)
Express your answer in µM, writing the number without its unit.

Consider the following illustrative entries.
molecule | measuredTarget | unitOfMeasure | TGI
CCCCCCCCCCCCCCCCCC1=NC(C)(C)CN1CC(C)O (centres undefined) | COLO 205 colon | µM | 6.61
CCC1CC2C(=O)N(c3ccccc3)C(=O)C2c2[nH]c3ccccc3c21 (centres undefined) | COLO 205 colon | µM | 78.5
O=[N+]([O-])c1cc(Cl)c2[nH]c3c(Cl)cc([N+](=O)[O-])cc3c2c1 | COLO 205 colon | µM | 1.99

Please find the next molecule below.
Which TGI reading was recorded for the molecule O=C(/C=C/c1ccccc1)C(Br)C(Br)c1ccccc1 (centres undefined) ?
3.14

====

- System: NCI-H23 lung
- experimentNotes: NCI tumour cell line growth inhibition, 48 h; in the data active means GI50 below about 0.43 µM; inactive means the rest
Choose one outcome from this list and give only that: active, inactive

compound | group
CC(C)c1c(-c2ccccc2)nc2c(C#N)c[nH]n2c1=O | inactive
CCNc1cc(-c2cccc(OC(F)(F)F)c2)nc2ccc(N3CCCC3)cc12 | inactive
COc1ccc2c(=O)cc(-c3ccccc3)[nH]c2c1 | inactive
CCC(O)c1ccc(Br)cc1NC(=O)c1cccc(Cl)c1 (stereo not given) | inactive
O=C1/C(=C/c2cccc(Br)c2)COc2ccc(O)cc21 | inactive
Cn1c(-c2c(N)n(Nc3cccc(Cl)c3)c3nc(C#N)c(C#N)nc23)nc2ccccc21 | inactive
Cc1ncc(C(=O)Nc2ccc(CN3CCN(C)CC3)c(C(F)(F)F)c2)cc1C#Cc1cnc2cccnn12 | active
CC(=O)Oc1ccc(C23c4ccccc4C2(OC(C)=O)c2cc(OC(C)=O)ccc23)cc1 (stereo not given) | inactive
O=S(=O)(NC1=NCCN1C(=S)SN1CCn2c1nsc2=S)c1cccc2ccccc12 | inactive

Field: next compound
Kindly provide the recorded test outcome for the following compound: O=C(/C=C/C12c3ccccc3C(c3ccccc31)C1C(=O)NC(=O)C12)c1ccc(Cl)cc1Cl (stereo not given)
inactive
